Measured TGI, listed per entry for reference.
Test system: PC-3 prostate
method: NCI tumour cell line growth inhibition, 48 h
State the answer as a number, implicitly in µM.

Req: Return TGI (reported value) for this molecule: N#CN=C(N)c1sc2nc3c(c(-c4ccc(Br)cc4)c2c1N)CCCC3
Resp: 52.7

Req: State, in one line, measured TGI of COc1ccc(C2CC(c3cc(OC)c(OC)c(OC)c3)=NO2)cc1OCCCCOc1cc2c(cc1OC)C(=O)N1CCC[C@H]1C=N2 (stereo not given in full)
Resp: 3.04

---

Test system: NCI-H23 lung
method: NCI tumour cell line growth inhibition, 48 h; in the data active = GI50 below about 0.43 µM; inactive = the rest
Your response should consist of one outcome taken from active, inactive

CCCCC[C@H](O)/C=C/[C@@H]1[C@@H](C/C=C\CCCC(=O)O)[C@@H](O)C[C@H]1O; inactive
COC(=O)CCC(=O)C(=O)OC; inactive
Cc1nc(-c2cccc(Nc3nc(-c4ccc(Cl)cc4)cs3)c2)cs1; inactive
O=C1C(Cl)=C(Nc2cccc(Cl)c2)C(=O)N1Cc1ccccc1; inactive
F; inactive

Req: GET /call?item= Cn1cc(-c2ccc3c(Nc4cccc(NC(=O)Nc5cccc(F)c5)c4)ncnc3c2)cn1 returns the recorded outcome of this test.
Resp: inactive

Req: Assay outcome for C=CC[n+]1c(/C=C/C=C2\N(C)c3ccccc3C2(C)C)sc2ccc(OC)cc21 : what was it?
Resp: active

Req: Test call for this compound, please: CCSCC1CC(O)(c2ccccc2)C(c2ccccc2)C(c2ccc(Cl)cc2)O1 (centres undefined)
Resp: inactive

Req: Which outcome did this test record for the compound CCNC(=O)[C@@H]1CCCN2C(=O)CC[C@H](NC(=O)[C@H](Cc3ccc(OP(=O)(O)O)cc3)NC(C)=O)C(=O)N12 ?
Resp: inactive

---

Tested on: SW-620 colon
method: NCI tumour cell line growth inhibition, 48 h; in the data active = GI50 below about 0.43 µM; inactive = the rest
Choose one outcome from this list and give only that: label 1 = active, label 0 = inactive

Solved entries:
COc1ccc2[nH]c(=O)c3c4ccccc4cn3c2c1; label 1
CCSCC1CC(O)(c2ccccc2)C(c2ccccc2)C(c2ccc(Cl)cc2)O1 (stereo not drawn); label 0

Kindly review the next compound as well.
Req: Record lookup: outcome of this test for COc1ccc(-c2cc(-c3cc(Cl)ccc3Cl)nc3n[nH]c(N)c23)cc1 ?
Resp: label 0

---

Examples of compounds with documented TGI follow.
Tested on: UACC-257 melanoma
method: NCI tumour cell line growth inhibition, 48 h

Example entries and their recorded answers appear below.
O=C1c2ccccc2-c2c1c1ccccc1c(=O)n2CCCCNCCCn1c2c(c3ccccc3c1=O)C(=O)c1ccccc1-2; 13.8 µM
Cc1cc2nc(C(C)C(=O)c3ccc(Cl)cc3)c(=O)[nH]c2cc1C (stereo not drawn); > 100 µM
CCCCCCCC1C(C)c2c([nH]c3ccccc23)C2C(=O)N(c3ccc(OC)cc3)C(=O)C21 (stereo not drawn); 7.65 µM
OCC1OC(n2nc(-c3ccccc3)nc2-c2cnccn2)C(O)C(O)C1O (stereo not drawn); > 100 µM
O=[N+]([O-])c1nc(-c2ccccn2)[nH]c1[N+](=O)[O-]; > 100 µM
CC1(C)CCC[C@@]2(C)C1CCC1(C)C(CCc3ccoc3)/C(=C/OS(=O)(=O)O)CCC12 (stereo partly drawn) (tested in a mixture with another compound); > 100 µM
ClCCCN(CCCCl)c1ccc(C=Nc2cccc(Cl)c2)cc1; > 77 µM

Req: Give TGI for COC1=C2CC(C)CC(OC)C(O)C(C)/C=C(\C)C(OC(N)=O)C(OC)/C=C\C=C(/C)C(=O)NC(=C(C=NC(C)(C)C)C1=O)C2=O (stereo not drawn)
Resp: 17.8 µM

---

Tested on: OVCAR-5 ovarian
method: NCI tumour cell line growth inhibition, 48 h
Known TGI of a selection of molecules

// worked examples, TGI included
Cc1c(NC(=S)NN)c(=O)n(-c2ccccc2)n1C; > 100 µM
CC(C)(C)NNC(=O)/C(=C/c1ccc([N+](=O)[O-])cc1)NC(=O)c1ccccc1; > 100 µM
CC(=O)N[C@@H](Cc1ccc(OP(=O)(O)O)cc1)C(=O)N[C@H]1CCC(=O)N2CCC[C@@H](C(=O)NCc3ccc(Cl)cc3)N2C1=O; > 25 µM
CCNC(=O)[C@@H]1CCCN2C(=O)CC[C@H](NC(=O)[C@H](Cc3ccc(OP(=O)(O)O)cc3)NC(C)=O)C(=O)N12; > 25 µM

Req: Fill: TGI (OVCAR-5 ovarian) for this molecule CC12CCC3C(CCC4Cc5[nH]c6ccccc6c5CC43C)C1CCC2O (stereo not drawn)
Resp: > 100 µM

---

The entries below are paired with their reported GI50.
System: UACC-257 melanoma
method: NCI tumour cell line growth inhibition, 48 h

Guide cases for GI50, answers given:
O=C(Nc1ccc(Cl)c(Cl)c1)c1cccc(NC2=C(Cl)C(=O)N(Cc3ccccc3)C2=O)c1; 41.1 µM
Clc1ccc(CSC(Cn2ccnc2)c2ccc(Cl)cc2Cl)cc1 (configuration not stated); 1.43 µM
COc1cc(NS(C)(=O)=O)ccc1Nc1c2ccc([N+](=O)[O-])cc2nc2c(C)cccc12; 1.29 µM
COc1ccc2oc(=O)cc(C(c3ccc[nH]3)c3ccc[nH]3)c2c1; 0.468 µM
Cc1cccc(NC(=O)CCc2ccc(N3C(N)=NC(N)=NC3(C)C)cc2)c1; 28.1 µM

Req: Determine its reported GI50: F
Resp: 2160 µM

Req: Identify measured GI50 corresponding to CCN(CC)CCOCC[C@H]1CC[C@H]2[C@@H]3[C@H](C)Cc4cc(OS(N)(=O)=O)ccc4[C@H]3CC[C@]12C
Resp: 1.74 µM

Req: Read off the recorded GI50 for CCSCC1CC(O)(c2ccccc2)C(c2ccccc2)C(c2ccc(Cl)cc2)O1 (configuration not stated)
Resp: 1.83 µM

---

Here the recorded TGI is given for each entry.
Test system: PC-3 prostate
method: NCI tumour cell line growth inhibition, 48 h
Numeric only. Scale: µM

ClCCCN(CCCCl)c1ccc(C=Nc2cccc(Cl)c2)cc1; 50.7
COc1cc(-c2cn(S(=O)(=O)c3ccc(C)cc3)c3ccccc23)nc(-c2cn(S(=O)(=O)c3ccc(C)cc3)c3ccccc23)n1; 38.5
CC(C)(C)c1cc(C(=O)Nc2cc(Br)c(Br)cc2S(N)(=O)=O)cc(C(C)(C)C)c1O; 22.9
CC[C@]1(O)CC(OC2CC(N(C)C)C(O)C(C)O2)c2c(cc3c(c2O)C(=O)c2c(O)cccc2C3=O)[C@@H]1C(=O)OC (stereo partly specified); 1.8
O=C[C@@H](CO)O[C@H](C=O)c1c[nH]c(=O)[nH]c1=O; 790
CC(C)(C)c1cc(CC2C(=O)c3ccccc3C2=O)cc(C(C)(C)C)c1O; 10.3

Req: Report TGI under test system PC-3 prostate for Clc1ccc(CSC(Cn2ccnc2)c2ccc(Cl)cc2Cl)cc1 (stereo unspecified) .
Resp: 3.61

Req: State TGI (PC-3 prostate) of CN=C(N)N/N=C(\C)c1ccc2c(c1)Cc1cc(/C(C)=N/NC(N)=NC)ccc1-2 .
Resp: 5.8

Req: Report the value of TGI obtained on PC-3 prostate for COc1ccc2nc3cc(Cl)ccc3c(NCCCN(Cc3cc(OC)c(OC)c(OC)c3)Cc3cc(OC)c(OC)c(OC)c3)c2c1 .
Resp: 30.6

---

Test system: RXF 393 renal
method: NCI tumour cell line growth inhibition, 48 h
Reported TGI is given for each of the following compounds.

CC(NS(=O)(=O)c1ccc([N+](=O)[O-])cc1)C(=O)O (centres undefined); > 100 µM
CC1=NCCN=C(C)C1N=Nc1ccc2nc(C)[nH]c2c1; 40.1 µM
O=C(Nc1ccccc1-c1n[nH]c(=S)[nH]c1=O)C(F)(F)F; > 100 µM
CCCCCCCC1C(C)c2c([nH]c3ccccc23)C2C(=O)N(c3ccc(OC)cc3)C(=O)C21 (centres undefined); 8.14 µM
Cc1ccc2c3c1O[C@H]1c4[nH]c5ccccc5c4C[C@@]4(O)[C@@H](C2)N(C)CC[C@]314; 22.7 µM
O=[N+]([O-])c1nc(-c2ccccn2)[nH]c1[N+](=O)[O-]; > 100 µM

Req: Supply TGI value. Item: CC(=O)N[C@@H](Cc1ccc(OP(=O)(O)O)cc1)C(=O)N[C@H]1CCC(=O)N2CCC[C@@H](C(=O)NCc3ccc(Cl)cc3)N2C1=O
Resp: > 25 µM

Req: Read off the recorded TGI for O=c1sc2c(s1)SSSSS2
Resp: > 50 µM

Req: Supply TGI value. Item: Cc1cn(Cc2ccccc2CCO)c(=S)[nH]c1=O
Resp: > 100 µM

---

Tested on: COLO 205 colon
method: NCI tumour cell line growth inhibition, 48 h
Each entry below lists one item and its recorded TGI value.

CCCCON(OC(=O)c1ccccc1)C(=O)c1ccccc1; > 100 µM
Cc1ccc(-c2nc(C)c(C(=O)Nc3ccc(Cl)cc3)s2)cc1; > 100 µM
Cc1cc2nc(C(C)C(=O)c3ccc(Cl)cc3)c(=O)[nH]c2cc1C (stereo not drawn); 53.7 µM
COc1ccc(C2=CC(c3ccccc3)n3nnnc3N2)cc1 (stereo not drawn); > 100 µM
O=C1c2c(Cl)c(Cl)c(Cl)c(Cl)c2C(=O)N1CCN(c1c(Cl)ssc1=O)c1c(Cl)ssc1=O; 35 µM
O=C1OC[C@@H]2[C@@H](O)CCCCCN12; > 100 µM
Cc1ccc(NC(=O)c2cc3cc(N=Nc4ccc(Br)cc4)ccc3oc2=O)cc1; > 100 µM

Attention now turns to another entry.
Req: Specify measured TGI for CCOC(=O)C1(C(N)=O)C(=O)c2ccncc2C1=O (stereo not drawn) .
Resp: > 100 µM
